Exercise: for every item that follows, state its recorded IC50.
Target: UniProt Q8NBP7
Sequence (Q8NBP7 153-692): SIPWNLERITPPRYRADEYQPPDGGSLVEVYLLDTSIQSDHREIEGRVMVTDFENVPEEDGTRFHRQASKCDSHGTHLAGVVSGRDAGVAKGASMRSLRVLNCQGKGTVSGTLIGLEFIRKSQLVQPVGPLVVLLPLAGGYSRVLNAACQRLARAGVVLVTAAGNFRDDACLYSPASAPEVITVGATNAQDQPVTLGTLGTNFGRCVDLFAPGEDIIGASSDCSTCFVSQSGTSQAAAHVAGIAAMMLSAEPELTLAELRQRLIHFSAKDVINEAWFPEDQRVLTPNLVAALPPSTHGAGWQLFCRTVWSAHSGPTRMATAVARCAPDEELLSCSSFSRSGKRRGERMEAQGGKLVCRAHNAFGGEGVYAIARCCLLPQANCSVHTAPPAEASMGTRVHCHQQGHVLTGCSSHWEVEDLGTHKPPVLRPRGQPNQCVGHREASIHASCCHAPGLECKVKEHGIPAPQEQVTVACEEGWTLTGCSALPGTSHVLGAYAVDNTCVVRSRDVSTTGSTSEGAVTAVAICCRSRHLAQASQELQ
Assay: PCSK9 Alexa FRET Plus assay (displacement of AlexaFluor647 tagged cyclic peptide Reagent B)
Type: binding
Conditions: Alexa FRET Plus, 0.5 nM PCSK9, 960 nM AF cyclic peptide Reagent B; read-out: IC50
Starred links: 1 amine or outer side, 2 acyl side, 3 side chain; linkers in the order of their positions; H or OH if unused. Positions of bridges follow the written chain, without caps; N, C: chain ends. Non-standard residues stand in square brackets, D forms with d. Residues, ends and D or L forms follow the SMILES beside them. *: point of attachment. Phe(3-CH2NH2) = O=C([C@H](Cc1cccc(CN[*:3])c1)N[*:1])[*:2]; X5 = O=C([C@@H]1C[C@H](SCc2ccc(C[*:3])cc2)CN1[*:1])[*:2]; X1 = O=C1CC[C@@H](C(=O)[*:1])N1CCCSCc1cccc(C[*:2])c1; Trp(5-F) = N[C@@H](Cc1c[nH]c2ccc(F)cc12)C(=O)O; Pro(cis-4-F) = O=C(O)[C@@H]1C[C@H](F)CN1; X4 = O=C(CCSCc1cccc(CSCCN[*:1])c1)[*:2]; mXylylene = c1cc(C[*:1])cc(C[*:2])c1; AEF = NCCOc1ccc(C[C@H](N)C(=O)O)cc1; αMeP = C[C@@]1(C(=O)O)CCCN1; X51 = COCCOCCOCCOCCC(=O)*; Piv = CC(C)(C)C(=O)*; Mpa = O=C(O)CCS

Fill blank: measured IC50 of the compound COc1ccc(C[C@@H]2NC(=O)[C@H]([C@H](C)O)NC(=O)[C@@H]3CCCc4cn(nn4)CC[C@H](NC(=O)[C@@H](C)NC(=O)[C@H](C)NC(=O)CCSCc4cccc(c4)CSCCNC(=O)[C@]4(C)CCCN4C2=O)C(=O)N[C@@H](Cc2c[nH]c4ccc(F)cc24)C(=O)N3)cc1 is ____.
500 to 5000 nM

Fill blank: measured IC50 of the compound COc1ccc(C[C@@H]2NC(=O)[C@H](Cc3cnc[nH]3)NC(=O)[C@H](CC(=O)O)NC(=O)[C@H](Cc3c[nH]c4ccc(F)cc34)NC(=O)[C@H](Cc3c[nH]c4ccc(F)cc34)NC(=O)[C@@H](C)NC(=O)[C@H](CCCCN)NC(=O)[C@@H](NC(C)=O)CC(=O)NCCOc3ccc(cc3)C[C@@H](C(N)=O)NC(=O)[C@]3(C)CCCN3C2=O)cc1 [Compound 349] (Ac-DK[dA][Trp(5-F)][Trp(5-F)]DHY(Me)[αMeP][AEF]-NH2; lactam 1-10) is ____.
100 to 500 nM

Fill blank: measured IC50 of the compound COc1ccc(C[C@@H]2NC(=O)[C@H]([C@@H](C)OC)NC(=O)[C@H](CCC(=O)O)NC(=O)[C@H](Cc3c[nH]c4ccc(F)cc34)NC(=O)[C@H](Cc3cccc(CN)c3)NC(=O)[C@@H](C)NC(=O)[C@H](C)NC(=O)CCSCc3cccc(c3)CSCCNC(=O)[C@]3(C)CCCN3C2=O)cc1 [Compound 343] (cyclo(A[dA][Phe(3-CH2NH2)][Trp(5-F)]ET(Me)Y(Me)[αMeP][X4])) is ____.
0.1 to 100 nM

Fill blank: measured IC50 of the compound COc1ccc(C[C@@H]2NC(=O)[C@H]([C@@H](C)O)NC(=O)[C@@H]3C[C@H](F)CN3C(=O)[C@H](Cc3c[nH]c4ccc(F)cc34)NC(=O)[C@H](Cc3c[nH]c4ccc(F)cc34)NC(=O)[C@@H](C)NC(=O)[C@H](CCCCN)NC(=O)[C@@H](NC(C)=O)CCC/C=C\Cc3ccc(cc3)C[C@@H](C(N)=O)NC(=O)[C@]3(C)CCCN3C2=O)cc1 is ____.
500 to 5000 nM

Fill blank: measured IC50 of the compound C[C@@]12CCCN1C(=O)[C@H](Cc1ccc(O)cc1)NC(=O)[C@H](Cc1c[nH]cn1)NC(=O)[C@H](CC(=O)O)NC(=O)[C@H](Cc1c[nH]c3ccc(F)cc13)NC(=O)[C@H](Cc1c[nH]c3ccc(F)cc13)NC(=O)CNC(=O)[C@@H]1CCC(=O)N1CCCSCc1cccc(c1)CSC[C@@H](C(N)=O)NC2=O [Compound 481] (G[Trp(5-F)][Trp(5-F)]DHY[αMeP]C-NH2; linker N-8 via X1) is ____.
500 to 5000 nM

Fill blank: measured IC50 of the compound COc1ccc(C[C@@H]2NC(=O)[C@H]([C@@H](C)O)NC(=O)[C@@H]3CC[C@H](F)N3C(=O)[C@H](Cc3c[nH]c4ccc(F)cc34)NC(=O)[C@H](Cc3c[nH]c4ccc(F)cc34)NC(=O)[C@@H](C)NC(=O)c3ccc(cc3)-c3ccc(cc3)CNCc3ccc(cc3)C[C@@H](C(N)=O)NC(=O)[C@]3(C)CCCN3C2=O)cc1 is ____.
500 to 5000 nM

Fill blank: measured IC50 of the compound NCCCC[C@@H]1NC(=O)CCSCc2ccc(cc2)CS[C@H]2C[C@@H](C(N)=O)N(C2)C(=O)[C@H](Cc2ccc(O)cc2)NC(=O)[C@H](Cc2cnc[nH]2)NC(=O)[C@H](CC(=O)O)NC(=O)[C@H](Cc2c[nH]c3ccc(F)cc23)NC(=O)[C@H](Cc2c[nH]c3ccc(F)cc23)NC(=O)CNC1=O [Compound 328] ([Mpa]KG[Trp(5-F)][Trp(5-F)]DHY[X5]-NH2; thioether 1-9) is ____.
500 to 5000 nM

Fill blank: measured IC50 of the compound NCCCC[C@@H]1NC(=O)CCCn2cc(nn2)CCC[C@@H](C(N)=O)NC(=O)[C@@H]2CCCN2C(=O)[C@H](Cc2ccc(O)cc2)NC(=O)[C@H](Cc2c[nH]cn2)NC(=O)[C@H](CC(=O)O)NC(=O)[C@H](Cc2c[nH]c3ccc(F)cc23)NC(=O)[C@H](Cc2c[nH]c3ccc(F)cc23)NC(=O)CNC1=O is ____.
500 to 5000 nM

Fill blank: measured IC50 of the compound COCCOCCOCCOCCC(=O)NCCCC[C@@H]1NC(=O)CCSCc2cccc(c2)CSC[C@@H](C(N)=O)NC(=O)[C@]2(C)CCCN2C(=O)[C@H](Cc2ccc(O)cc2)NC(=O)[C@H](Cc2cnc[nH]2)NC(=O)[C@H](CC(=O)O)NC(=O)[C@H](Cc2c[nH]c3ccc(F)cc23)NC(=O)[C@H](Cc2c[nH]c3ccc(F)cc23)NC(=O)CNC1=O [Compound 484] ([Mpa]K(X51)G[Trp(5-F)][Trp(5-F)]DHY[αMeP]C-NH2; linker 1-10 via mXylylene) is ____.
0.1 to 100 nM

Fill blank: measured IC50 of the compound COc1ccc(C[C@@H]2NC(=O)[C@H]([C@@H](C)O)NC(=O)[C@@H]3C[C@H](F)CN3C(=O)[C@H](Cc3c[nH]c4ccc(F)cc34)NC(=O)[C@H](Cc3c[nH]c4ccc(F)cc34)NC(=O)[C@@H](C)NC(=O)[C@H](CCCCN)NC(=O)[C@@H](NC(=O)C(C)(C)C)CC(=O)NCCOc3ccc(cc3)C[C@@H](C(N)=O)NC(=O)[C@]3(C)CCCN3C2=O)cc1 [Compound 119] (Piv-DK[dA][Trp(5-F)][Trp(5-F)][Pro(cis-4-F)]TY(Me)[αMeP][AEF]-NH2; lactam 1-10) is ____.
500 to 5000 nM
